- TEST_TARGET: full-length BCL6/SMRT protein–protein interaction in HEK293T cells (Homo sapiens)
- Construct: DNA encoding full length BCL6 and SMRT was inserted into pFC32K NanoLuc and pFC14K HaloTag vectors; expressed in transfected cells; host or cells: HEK293T
- ASSAY_COMMENT: NanoBRET cellular assay
- Format: cell-based
- SETUP_CONDITIONS: Figure 7B; C-terminally NanoLuc tagged BCL6 / SMRT.HaloTag; read-out: NanoBRET IC50, BCL6.NanoLuc
REPORTED_ENDPOINT: IC50 (µM)
Answers are plain numbers, in µM.

Data request: Quick check: IC50 of CNC(=O)c1cc(Nc2ccc3c(c2)n(CCC(C)(C)O)c(=O)n3C)c(C#N)c(Cl)n1 [Compound 27] ?
Data returned: 3

* * *

- TEST_TARGET: Trx-6His-BCL6 BTB (Homo sapiens)
- Construct: made in house; host or cells: E. coli BL21-AI
- ASSAY_COMMENT: TR-FRET assay, Trx-6His-BCL6 BTB / BCOR-A633 peptide
- Type: biochemical
- SETUP_CONDITIONS: 1 or 10 nM Trx-6His-BCL6 BTB; read-out: TR-FRET IC50
REPORTED_ENDPOINT: pIC50
Numbers only, as −log10 of the molar value.

# annotated cases, reported pIC50 shown
[
  {
    "TEST_SMILES": "N#Cc1c(NCc2ccccc2)ccnc1Cl",
    "TEST_TARGET": "Trx-6His-BCL6 BTB (Homo sapiens)",
    "TEST_VALUE": 4.15
  },
  {
    "TEST_SMILES": "Cn1c(=O)n(C)c2cc(Nc3cc(SCc4ccccc4)ncn3)ccc21",
    "TEST_TARGET": "Trx-6His-BCL6 BTB (Homo sapiens)",
    "TEST_VALUE": 4.27
  }
]

Turning to the following compound.
Data request: Record request: pIC50 value, item CC(C)OC(=O)c1cc(Nc2ccc3c(c2)CC(=O)N3C)n2nccc2n1
Data returned: 5.68

* * *

- ASSAY_COMMENT: PAMPA passive permeability
- Type: in vitro ADME
- SETUP_CONDITIONS: PAMPA, pH 7.4; read-out: PAMPA passive cell permeability
REPORTED_ENDPOINT: Papp at 16 h, 10 µM
Be sure to follow the number with its unit.

Data request: Reported Papp at 16 h, 10 µM, compound CC(C)OC(=O)c1cc(Nc2ccc3c(c2)CC(=O)N3C)n2nccc2n1 [Compound 25] : ____
Data returned: 110 ×10⁻⁶ cm/s

* * *

Observed pKd values for BCL6 BTB domain (Homo sapiens) are listed in what follows.
Give bare numbers, as −log10 of the molar value.

Solved cases (2 shown):
[
  {
    "MOLECULE": "O=C(NCc1ccccn1)c1csc(Nc2ccccc2Cl)n1",
    "pKd": 3.52
  },
  {
    "MOLECULE": "Cn1c(=O)n(C)c2cc(Nc3cc(SCc4ccccc4)ncn3)ccc21",
    "pKd": 4.31
  }
]

Please supply pKd for each of the following items, keeping them in order.
1. N#Cc1c(C(F)(F)F)cc(-c2cccs2)nc1SC(C(=O)O)c1ccccc1 (centres unmarked)
2. COC(=O)C1=C(C)Nc2ncnn2C1c1ccc(C(=O)O)cc1 (centres unmarked)
3. N#Cc1c(NCc2ccccc2)ccnc1Cl
4. CCCC1=C(C(=O)OCC)C(c2cccnc2)n2ncnc2N1 (centres unmarked)

Data returned:
[3.17, 3.18, 4.09, 3.77]

Batch request: pKd for each of the following molecules.
1. CC(C)CCn1c(SCC(=O)Nc2ccccc2F)nc2nccnc2c1=O
2. O=C(NCCCN1CCOCC1)c1csc(Nc2cccc3ccccc23)n1

Data returned:
2.92
3.26

* * *

- ASSAY_COMMENT: NMR kinetic solubility
- Format: physicochemical
- SETUP_CONDITIONS: 500 µM final compound concentration, 20 mM HEPES buffer pH 8, 2% or 5% DMSO
REPORTED_ENDPOINT: Sol. (NMR kinetic solubility) (µM)
One number for each entry, in µM.

Check out these entries, answers already filled in.
[
  {
    "COMPOUND": "COC(=O)C1=C(C)Nc2ncnn2C1c1ccc(C(=O)O)cc1 (centres unmarked) [Compound 6]",
    "REPORTED_ENDPOINT": "Sol. (NMR kinetic solubility)",
    "TEST_VALUE": 538
  },
  {
    "COMPOUND": "CC(C)CCn1c(SCC(=O)Nc2ccccc2F)nc2nccnc2c1=O [Compound 22]",
    "REPORTED_ENDPOINT": "Sol. (NMR kinetic solubility)",
    "TEST_VALUE": 163
  },
  {
    "COMPOUND": "Cc1cc(NCc2ccc3c(c2)OCO3)n2ncnc2n1 [Compound 9]",
    "REPORTED_ENDPOINT": "Sol. (NMR kinetic solubility)",
    "TEST_VALUE": 96
  }
]

Continue with the compound presented below.
Data request: So what does the record say about Sol. (NMR kinetic solubility) for Cn1c(=O)n(C)c2cc(Nc3cc(SCc4ccccc4)ncn3)ccc21 [Compound 17] ?
Data returned: 39

* * *

BCL6 BTB domain (Homo sapiens, UniProt P41182) measurements of pIC50, listed per entry.
Answers are plain numbers, as −log10 of the molar value.

# return pIC50 for each item in the list
1. N#Cc1c(NCc2ccccc2)ccnc1Cl
2. Cc1cc(NCc2ccc3c(c2)OCO3)n2ncnc2n1

Data returned:
3.92
3.32

Provide the reported pIC50 of each entry below, same order.
1. O=C(NCc1ccccn1)c1csc(Nc2ccccc2Cl)n1
2. CCCC1=C(C(=O)OCC)C(c2cccnc2)n2ncnc2N1 (stereo not drawn)
3. Cn1c(=O)n(C)c2cc(Nc3cc(SCc4ccccc4)ncn3)ccc21
4. COc1cccc(CN(C)c2nc3c(cnn3C(C)(C)C)c(=O)[nH]2)c1
5. Cc1ccccc1C1CC(c2ccccc2)Nc2ncnn21 (stereo not drawn)
6. N#Cc1c(C(F)(F)F)cc(-c2cccs2)nc1SC(C(=O)O)c1ccccc1 (stereo not drawn)
7. CC(C)CCn1c(SCC(=O)Nc2ccccc2F)nc2nccnc2c1=O

Data returned:
1: 3.74; 2: 4.02; 3: 4.15; 4: 3.18; 5: 3.70; 6: 3.64; 7: 3.45

For every item below, please supply its pIC50.
1. CCC1=C(C(=O)OC)C(c2ccccc2F)n2ncnc2N1 (stereo not drawn)
2. O=C(NCCCN1CCOCC1)c1csc(Nc2cccc3ccccc23)n1
3. Fc1ccc(C2CC(c3ccccc3Cl)Nc3ncnn32)cc1 (stereo not drawn)
4. COC(=O)C1=C(C)Nc2ncnn2C1c1ccc(C(=O)O)cc1 (stereo not drawn)
5. Fc1ccc(C2CC(c3cccc4ccccc34)n3ncnc3N2)cc1 (stereo not drawn)

Data returned:
3.66
3.83
3.71
3.15
3.99

* * *

- ASSAY_COMMENT: HPLC aqueous solubility
- Format: physicochemical
- SETUP_CONDITIONS: aqueous buffer, kinetic from dmso stock; PBS buffer pH 7.4, 1% DMSO, maximum targeted concentration 100 µM; read-out: HPLC Sol.
REPORTED_ENDPOINT: solubility kinetic (µM)
Numbers only, in µM.

Data request: What value of solubility kinetic has been recorded for this entry: CNC(=O)c1cc(Nc2ccc3c(c2)n(CCC(C)(C)O)c(=O)n3C)c(C#N)c(Cl)n1
Data returned: 80

* * *

- TEST_TARGET: BCL6 BTB domain (Homo sapiens)
- Construct: the tag was removed by HRV-3C protease treatment, generating a simpler BCL6 5–129 product; Thioredoxin (N, cleaved yes); 6His (N, cleaved yes); made in house; host or cells: E. coli BL21-AI
- ASSAY_COMMENT: Fluorescence polarisation (FP) competition assay with BCOR-AF633 peptide
- Type: biochemical
- SETUP_CONDITIONS: repurchased hits
Give measured FP pIC50 Mean for each item. Keep answers brief.
Numbers only.

Check out these entries, answers already filled in.
[
  {
    "COMPOUND": "Fc1ccc(C2CC(c3cccc4ccccc34)n3ncnc3N2)cc1 (stereo not drawn)",
    "FP pIC50 Mean": 3.99
  },
  {
    "COMPOUND": "CC(C)CCn1c(SCC(=O)Nc2ccccc2F)nc2nccnc2c1=O",
    "FP pIC50 Mean": 3.45
  },
  {
    "COMPOUND": "COC(=O)C1=C(C)Nc2ncnn2C1c1ccc(C(=O)O)cc1 (stereo not drawn)",
    "FP pIC50 Mean": 3.15
  },
  {
    "COMPOUND": "Fc1ccc(C2CC(c3ccccc3Cl)Nc3ncnn32)cc1 (stereo not drawn)",
    "FP pIC50 Mean": 3.71
  },
  {
    "COMPOUND": "Cn1c(=O)n(C)c2cc(Nc3cc(SCc4ccccc4)ncn3)ccc21",
    "FP pIC50 Mean": 4.15
  }
]

I have 4 compounds here; please give me FP pIC50 Mean for each one.
1. N#Cc1c(C(F)(F)F)cc(-c2cccs2)nc1SC(C(=O)O)c1ccccc1 (stereo not drawn)
2. CCCC1=C(C(=O)OCC)C(c2cccnc2)n2ncnc2N1 (stereo not drawn)
3. O=C(NCCCN1CCOCC1)c1csc(Nc2cccc3ccccc23)n1
4. Cc1ccccc1C1CC(c2ccccc2)Nc2ncnn21 (stereo not drawn)

Data returned:
1: 3.64; 2: 4.02; 3: 3.83; 4: 3.70
